// MIC lookup, one value per entry
- Test system: Aspergillus niger
- assay-overview: Antimicrobial activity against Aspergillus niger assessed as growth inhibition after 72-96 hr by two-fold serial dilution method
- Type: functional
Provide only the numeric value, understood in µg/mL.

{"columns": ["molecule", "unit-of-measure", "MIC"],
 "data": [
  ["CC1/C(=N/Nc2nc3ccccc3s2)CC(c2ccc(Cl)cc2)NC1c1ccc(Cl)cc1 (stereo not given)", "µg/mL", 100],
  ["CC1/C(=N/Nc2nc3ccccc3s2)CC(c2ccccc2Cl)NC1c1ccccc1Cl (stereo not given)", "µg/mL", 50],
  ["CC1/C(=N/Nc2nc3ccccc3s2)CC(c2ccccc2)NC1c1ccccc1 (stereo not given)", "µg/mL", 100]
]}

Provide the documented MIC with Aspergillus niger as the system for COc1ccc(C2C/C(=N\Nc3nc4ccccc4s3)C(C)C(c3ccc(OC)cc3)N2)cc1 (stereo not given)
200

C[C@@H]1[C@H](O)[C@@H](C)/C=C/C=C/C=C/C=C/C=C/C=C/C=C/[C@H](O[C@@H]2O[C@H](C)[C@@H](O)[C@H](N)[C@@H]2O)C[C@@H]2O[C@](O)(C[C@@H](O)C[C@@H](O)[C@H](O)CC[C@@H](O)C[C@@H](O)CC(=O)O[C@H]1C)C[C@H](O)[C@H]2C(=O)O [AMPHOTERICIN B] ?
50

These entries and their values trace back to ChEMBL document CHEMBL3044880.
